Origin of values: patent US20260102422A1

test.method.notes: Guinea pig plasma PK, single dose
Format: in vivo
experimental.setup: guinea pig; Guinea pigs, 50 mg/kg PO, plasma
measured.attribute: Tmax (h)
Write the answer as a number in h, unit excluded.

Name the recorded Tmax for `O=c1ccn([C@@H]2O[C@](F)(CO)[C@@H](O)[C@H]2O)c(=O)[nH]1` .
1.8

###

test.method.notes: Guinea pig plasma PK, single dose
Format: in vivo
experimental.setup: guinea pig, plasma; Guinea pigs, 5 mg/kg IV
measured.attribute: clearance (mL/min/kg)
Write the answer as a number in mL/min/kg, unit excluded.

Name the recorded clearance for `O=c1ccn([C@@H]2O[C@](F)(CO)[C@@H](O)[C@H]2O)c(=O)[nH]1` .
3
